The reported measurements were obtained from patent US20250034269A1.

biological target: T1, dimeric human LTBR-Fc biotinylated (P1AE2401) (human, UniProt P36941 31-227, biotinylated in vitro); assay: competition ELISA vs lymphotoxin α1β2 (P1AE1235)
T1 construct: bought from R&D Systems (7538-LR); also called human LTBR ECD; not shown: human IgG1 Fc-Fragment
Exercise: for every item that follows, state its recorded rel. fit bottom (OD).
Mention the unit after the number when you answer.

Short answer for P1AE9457 (antibody, human IgG1, kappa, L234A L235A, V domains shown, human IgG1 PG LALA; from transgenic rabbit immunization; also called LTBR (9457)) VH: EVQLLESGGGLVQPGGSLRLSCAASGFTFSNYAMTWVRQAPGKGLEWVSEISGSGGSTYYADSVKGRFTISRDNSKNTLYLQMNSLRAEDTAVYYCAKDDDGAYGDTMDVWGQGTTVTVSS VL: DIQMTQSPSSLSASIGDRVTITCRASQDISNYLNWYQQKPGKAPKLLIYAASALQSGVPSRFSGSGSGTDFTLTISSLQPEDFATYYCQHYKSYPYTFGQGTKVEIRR : rel. fit bottom (OD) was 1 OD

Short answer for P1AF0064 (antibody, human IgG1, kappa, L234A L235A, V domains shown, human IgG1 PG LALA constant regions; V domains from rat immunization; also called LTBR (0064)) VH: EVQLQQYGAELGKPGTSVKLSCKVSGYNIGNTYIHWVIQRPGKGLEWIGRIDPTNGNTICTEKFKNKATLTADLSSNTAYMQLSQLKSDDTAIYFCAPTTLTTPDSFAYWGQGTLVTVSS VL: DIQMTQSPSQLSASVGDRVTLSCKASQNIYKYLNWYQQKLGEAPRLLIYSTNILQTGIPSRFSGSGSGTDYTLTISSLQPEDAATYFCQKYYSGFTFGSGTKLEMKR : rel. fit bottom (OD) was 0.1 OD

Short answer for P1AE1873 (CBE11) (antibody, human IgG1, kappa, L234A L235A, V domains shown) VH: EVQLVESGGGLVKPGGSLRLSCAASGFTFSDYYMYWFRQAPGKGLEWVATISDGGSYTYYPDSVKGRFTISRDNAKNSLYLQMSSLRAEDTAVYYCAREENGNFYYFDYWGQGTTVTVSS VL: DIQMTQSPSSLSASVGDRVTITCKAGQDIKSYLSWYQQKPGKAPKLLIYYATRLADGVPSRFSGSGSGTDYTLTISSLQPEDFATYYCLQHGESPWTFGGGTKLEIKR : rel. fit bottom (OD) was 0.4 OD

Short answer for P1AE9459 (antibody, human IgG1, kappa, L234A L235A, V domains shown, human IgG1 PG LALA; from transgenic rabbit immunization) VH: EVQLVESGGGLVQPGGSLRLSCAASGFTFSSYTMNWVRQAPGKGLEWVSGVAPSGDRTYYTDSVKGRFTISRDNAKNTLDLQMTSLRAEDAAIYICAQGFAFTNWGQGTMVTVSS VL: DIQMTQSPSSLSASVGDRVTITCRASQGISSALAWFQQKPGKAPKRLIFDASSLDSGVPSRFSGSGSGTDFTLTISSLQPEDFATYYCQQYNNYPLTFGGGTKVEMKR : rel. fit bottom (OD) was 0.1 OD

Short answer for P1AE9450 (antibody, human IgG1, kappa, L234A L235A, V domains shown, human IgG1 PG LALA; from transgenic rabbit immunization; also called LTBR (9450)) VH: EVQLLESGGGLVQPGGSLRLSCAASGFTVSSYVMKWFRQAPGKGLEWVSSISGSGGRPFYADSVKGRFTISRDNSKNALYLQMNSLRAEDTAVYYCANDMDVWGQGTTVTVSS VL: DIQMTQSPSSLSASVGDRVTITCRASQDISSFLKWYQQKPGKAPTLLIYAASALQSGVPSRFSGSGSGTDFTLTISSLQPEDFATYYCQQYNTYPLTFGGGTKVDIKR : rel. fit bottom (OD) was 0.5 OD

Short answer for P1AE9452 (antibody, human IgG1, kappa, L234A L235A, V domains shown, human IgG1 PG LALA; from transgenic rabbit immunization; also called LTBR (9452)) VH: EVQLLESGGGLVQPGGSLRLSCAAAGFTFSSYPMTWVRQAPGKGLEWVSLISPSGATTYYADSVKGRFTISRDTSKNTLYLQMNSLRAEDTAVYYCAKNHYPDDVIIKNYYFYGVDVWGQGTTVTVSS VL: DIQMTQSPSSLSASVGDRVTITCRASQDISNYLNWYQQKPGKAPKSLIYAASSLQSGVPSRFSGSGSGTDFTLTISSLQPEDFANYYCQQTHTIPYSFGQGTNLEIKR : rel. fit bottom (OD) was 0.5 OD
